Hey, just so you know, these numbers are from paper PMC6320938.

Assay: in vivo
Conditions: rat, in vivo, po, 3.75 g/kg, AUC0–∞, rat plasma, oral wheat bran-processed Atractylodis Rhizoma 3.75 g/kg, mean ± SD, n = 5
assay metric: AUC(0-inf) (ng·h/mL)
# output: bare number, implied unit ng·h/mL

Supply AUC(0-inf) value. Item: CC(C)(OC1OC(CO)C(O)C(O)C1O)C1CCC(O)(CO)C2CC(=O)C(C)(O)C2C1 (stereo not shown) [Atractyloside A]
325

----------
Assay: in vivo
Settings: rat, in vivo, po, 3.75 g/kg, MRT0–∞
Procedure: The validated UPLC-MS/MS method was used to measure atractylenolides I, II, and III, and atractyloside A simultaneously in rat plasma after oral administration of raw and wheat bran-processed Atractylodis Rhizoma at a dose of 3.75 g/kg. […] A UPLC system (Acquity, Waters, Milford, MA, USA) coupled with a mass spectrometer detector (XEVO-TQ-S, Waters) was used. […] The injection volume was 2 µL and the eluent was detected by mass spectrometry with electrospray ionization (ESI) in positive scan mode. […]
assay metric: MRT inf

Fill in MRT inf for record C=C1CCC[C@]2(C)C[C@]3(O)OC(=O)C(C)=C3C[C@@H]12 [Atractylenolide III]
3.48 h

----------
Test: in vivo
Conditions: rat, in vivo, po, 3.75 g/kg, AUC0–t
assay metric: AUC(0-t) (ng·h/mL)
Give the value in ng·h/mL but do not write ng·h/mL after it.

Output AUC(0-t) of C=C1CCC[C@]2(C)C[C@]3(O)OC(=O)C(C)=C3C[C@@H]12 [Atractylenolide III]
231

----------
Assay: in vivo
Details: rat, in vivo, po, 3.75 g/kg, Cmax, rat plasma, oral raw Atractylodis Rhizoma 3.75 g/kg, mean ± SD, n = 5
assay metric: Cmax
Number plus unit, in that order.

Fill in Cmax for record CC(C)(OC1OC(CO)C(O)C(O)C1O)C1CCC(O)(CO)C2CC(=O)C(C)(O)C2C1 (stereo not shown) [Atractyloside A]
57.8 ng/mL

----------
Assay: in vivo
Conditions: rat, in vivo, po, 3.75 g/kg, Tmax, rat plasma, oral wheat bran-processed Atractylodis Rhizoma 3.75 g/kg, mean ± SD, n = 5
assay metric: Tmax (h)
Enter your answer as a number in h; do not include the unit.

Provide only the value of recorded Tmax for CC(C)(OC1OC(CO)C(O)C(O)C1O)C1CCC(O)(CO)C2CC(=O)C(C)(O)C2C1 (stereo not shown) [Atractyloside A]
1.5
